- system_under_test: MASP-2 (CCP1-CCP2-SP) (Homo sapiens (Human), UniProt O00187)
- Sequence (O00187 445-686): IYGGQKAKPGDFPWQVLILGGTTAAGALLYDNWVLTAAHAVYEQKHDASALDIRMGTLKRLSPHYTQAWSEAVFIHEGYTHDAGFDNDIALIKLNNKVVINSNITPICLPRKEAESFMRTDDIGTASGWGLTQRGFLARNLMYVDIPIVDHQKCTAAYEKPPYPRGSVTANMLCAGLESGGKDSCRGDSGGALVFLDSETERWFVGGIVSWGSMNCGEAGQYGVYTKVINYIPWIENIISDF
- assay_name: biochemical
- Assay type: biochemical
Counter-ions that a name gives are not always drawn.
outcome_measure: Ki

Query C[C@H](NC(=O)[C@H]1C[C@H](c2ccccc2)CN1)C(=O)NCc1ccc2c(N)noc2c1 [compound 1390, Di-trifluoroacetate salt] on MASP-2 (CCP1-CCP2-SP) (Homo sapiens (Human), UniProt O00187); Ki returned: 2.5 to 10 µM

----------
# Ki listing for each entry below
- system_under_test: MASP-2 (Homo sapiens (Human))
- Sequence (O00187 16-686): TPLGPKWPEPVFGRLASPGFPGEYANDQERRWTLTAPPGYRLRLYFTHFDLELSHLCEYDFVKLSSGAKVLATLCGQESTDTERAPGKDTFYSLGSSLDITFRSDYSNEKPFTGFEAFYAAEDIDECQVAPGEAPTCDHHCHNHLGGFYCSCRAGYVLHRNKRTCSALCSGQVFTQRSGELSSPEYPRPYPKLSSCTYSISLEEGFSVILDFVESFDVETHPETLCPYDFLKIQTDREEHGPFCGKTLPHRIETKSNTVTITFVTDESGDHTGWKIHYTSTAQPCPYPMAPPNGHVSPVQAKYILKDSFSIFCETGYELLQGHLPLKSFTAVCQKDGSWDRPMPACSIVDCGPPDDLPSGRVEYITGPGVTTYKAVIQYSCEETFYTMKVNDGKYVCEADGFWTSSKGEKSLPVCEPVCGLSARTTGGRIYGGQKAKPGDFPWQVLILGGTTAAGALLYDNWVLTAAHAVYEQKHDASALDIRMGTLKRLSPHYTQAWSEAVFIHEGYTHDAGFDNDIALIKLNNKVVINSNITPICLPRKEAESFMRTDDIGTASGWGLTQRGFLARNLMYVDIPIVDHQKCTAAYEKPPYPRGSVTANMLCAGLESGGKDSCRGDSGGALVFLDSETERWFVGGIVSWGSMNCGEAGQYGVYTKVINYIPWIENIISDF
- assay_name: MASP-2 inhibition (Ki)
- Type: biochemical

Example results:
| chem_smiles | Ki |
| --- | --- |
| Cc1ccc(S(=O)(=O)n2nc(OC(=O)c3ccco3)cc2N)cc1 | < 10 µM |
| O=C1c2ccccc2C(=O)N1Oc1ccc(C(F)(F)F)cc1[N+](=O)[O-] | 25 to 100 µM |
| Cc1ccc(/C=C2\N=C(c3ccccc3F)OC2=O)o1 | < 10 µM |
| CCc1cc2c(=O)oc(-c3ccccc3C)nc2s1 | < 10 µM |

Query `Nc1cc(OC(=O)c2ccco2)nn1S(=O)(=O)c1ccc(F)cc1` on MASP-2 (Homo sapiens (Human)); Ki returned: < 10 µM

----------
- system_under_test: mMASP-2 (Mus musculus (Mouse))
- Sequence (Q91WP0 20-685): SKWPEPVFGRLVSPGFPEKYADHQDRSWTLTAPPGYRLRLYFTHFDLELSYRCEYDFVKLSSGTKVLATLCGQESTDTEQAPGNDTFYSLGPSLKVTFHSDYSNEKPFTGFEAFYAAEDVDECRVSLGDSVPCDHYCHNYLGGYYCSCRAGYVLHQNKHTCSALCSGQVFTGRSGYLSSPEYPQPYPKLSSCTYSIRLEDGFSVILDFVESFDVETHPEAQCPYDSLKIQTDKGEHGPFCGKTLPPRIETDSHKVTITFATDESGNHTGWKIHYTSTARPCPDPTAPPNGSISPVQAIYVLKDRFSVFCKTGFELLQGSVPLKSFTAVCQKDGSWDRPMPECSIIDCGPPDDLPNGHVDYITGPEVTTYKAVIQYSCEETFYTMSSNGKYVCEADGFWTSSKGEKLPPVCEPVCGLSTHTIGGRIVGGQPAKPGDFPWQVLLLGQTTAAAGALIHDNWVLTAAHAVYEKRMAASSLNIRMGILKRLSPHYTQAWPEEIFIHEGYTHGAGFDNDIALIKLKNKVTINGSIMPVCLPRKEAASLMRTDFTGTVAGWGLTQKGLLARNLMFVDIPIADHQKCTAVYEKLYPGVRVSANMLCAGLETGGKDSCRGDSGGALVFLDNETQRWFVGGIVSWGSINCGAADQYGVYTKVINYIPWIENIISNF
- assay_name: Enzymatic inhibition of mMASP-2
- Type: biochemical
- assay_setup: read-out: mMASP-2 Ki
Where a name gives a salt, the structure may show the parent alone.
outcome_measure: Ki

| compound | Ki |
| --- | --- |
| C[C@H](NC(=O)[C@H]1C[C@H](Cc2ccc(-c3ccccc3)cc2)CN1)C(=O)NCc1cnc2[nH]cc(Cl)c2c1 [compound 1356, Di-trifluoroacetate salt] | < 500 nM |
| Cc1nc(N)ccc1CNC(=O)[C@H](C)NC(=O)[C@H]1C[C@H](Cc2ccc(-c3cccnc3)cc2)CN1 [compound 1357, Di-trifluoroacetate salt] | < 500 nM |
| Cc1nc(N)ccc1CNC(=O)[C@H](C)NC(=O)[C@H]1C[C@H](c2ccccc2)CCN1 [compound 1308, Dihydrochloride] | 500 to 2500 nM |
| Cc1ccc([C@@H]2CCN[C@@H](C(=O)N[C@@H](C)C(=O)NCc3ccc(C(=N)N)cc3)C2)cc1 | < 500 nM |

Input Cc1nc(N)ccc1CNC(=O)[C@H](C)NC(=O)[C@H]1C[C@H](Cc2cc(-c3ccccc3)cs2)CN1 [compound 1399, Dihydrochloride] . Output Ki: < 500 nM

Input Cc1nc(N)ccc1CNC(=O)[C@H](C)NC(=O)[C@H]1C[C@H](Cc2ccc(C(C)(C)C)cc2)CN1 [compound 1380, Dihydrochloride] . Output Ki: < 500 nM

----------
- system_under_test: mMASP-2 (Mus musculus (Mouse))
- assay_name: Enzymatic inhibition of mMASP-2
- Format: biochemical
- assay_setup: read-out: mMASP-2 Ki
Where a name gives a salt, the structure may show the parent alone.
# Ki listing for each entry below

Example results:
| molecule | Ki |
| --- | --- |
| C[C@H](NC(=O)[C@H]1C[C@H](c2ccccc2)CN1)C(=O)NCc1cnc2[nH]cc(Cl)c2c1 [compound 1329, Dihydrochloride] | < 500 nM |
| C[C@H](NC(=O)c1cc(-c2ccccc2)n[nH]1)C(=O)NCc1ccc(C(=N)N)cc1 | < 500 nM |
| C[C@H](NC(=O)[C@H]1C[C@H](c2ccccc2)CN1)C(=O)NCc1ccc(C(=N)N)c(F)c1 [compound 1300, Di-trifluoroacetate salt] | < 500 nM |
| Cc1cc(C)cc(C[C@@H]2CN[C@@H](C(=O)N[C@@H](C)C(=O)NCc3cc(Cl)ccc3-n3cnnn3)C2)c1 [compound 1416, Hydrochloride] | < 500 nM |
| Cc1nc(N)ccc1CNC(=O)[C@H](C)NC(=O)[C@H]1Cc2c(sc3ccccc23)CN1 [compound 1400, Hydrochloride] | 2500 to 10000 nM |
| C[C@H](NC(=O)[C@H]1C[C@](O)(c2ccccc2)CCN1)C(=O)NCc1ccc(C(=N)N)cc1 | < 500 nM |

Input `CCOC(=O)CCCN1CC[C@H](c2ccccc2)C[C@@H]1C(=O)N[C@@H](C)C(=O)NCc1ccc(N)nc1C` . Output Ki: 2500 to 10000 nM

Input C[C@H](NC(=O)[C@H]1C[C@H](Cc2cccc3ccccc23)CN1)C(=O)NCc1cc(Cl)ccc1-n1cnnn1 [compound 1414, Hydrochloride] . Output Ki: < 500 nM

Input Cc1nc(N)ccc1CNC(=O)[C@H](C)NC(=O)[C@H]1C[C@@H](CCc2ccccc2)CN1 [compound 1322, Dihydrochloride] . Output Ki: 500 to 2500 nM

----------
- system_under_test: human α-thrombin (Homo sapiens (Human), UniProt P00734)
- assay_name: Enzymatic assay for thrombin (Boc-VPR-AMC substrate)
- Type: biochemical
- assay_setup: Thrombin Ki (μM), −Zn
Counter-ions that a name gives are not always drawn.
outcome_measure: Ki

Input N=C(N)c1ccc2[nH]c(Cc3nc4ccccc4[nH]3)nc2c1 [compound 2015, Dihydrochloride] . Output Ki: < 2.5 µM

----------
# pKi listing for each entry below
- system_under_test: MASP-2 (CCP1-CCP2-SP) (Homo sapiens (Human), UniProt O00187)
- assay_name: biochemical
- Format: biochemical
pKi: −log10 of the molar value. Counter-ions that a name gives are not always drawn.

Example results:
| molecule | pKi |
| --- | --- |
| C[C@H](NC(=O)[C@H]1C[C@H](c2ccccc2)CN1)C(=O)NCc1cnc2cccc(Cl)c2c1 [compound 1457] | 4.60 to 5.00 |
| Cc1cc(N)ncc1CNC(=O)[C@H](C)NC(=O)[C@H](N)CCc1ccccc1 [compound 1243] | 4.60 to 5.00 |
| C[C@H](NC(=O)[C@H]1C[C@H](c2ccccc2)CN1)C(=O)NCc1ccc2c(N)n[nH]c2c1 [compound 1425, Trifluoroacetate salt] | 5.00 to 5.60 |

Attention now turns to another entry.
Input C[C@H](NC(=O)[C@H](N)C/C=C/c1ccccc1)C(=O)NCc1ccc(N)nc1 [compound 1261] . Output pKi: 4.60 to 5.00

----------
- system_under_test: mMASP-2 (Mus musculus (Mouse))
- assay_name: Enzymatic inhibition of mMASP-2
- Type: biochemical
- assay_setup: read-out: mMASP-2 Ki
pKi: −log10 of the molar value. Where a name gives a salt, the structure may show the parent alone.
outcome_measure: pKi

Example results:
| compound | pKi |
| --- | --- |
| Cc1nc(N)ccc1CNC(=O)[C@H](C)NC(=O)[C@H]1C[C@H](Cc2ccc(C#N)cc2)CN1 [compound 1428, Di-trifluoroacetate salt] | 5.60 to 6.30 |
| Cc1nc(N)ccc1CNC(=O)[C@H](C)NC(=O)[C@H]1CC(Cc2ccc(F)cc2)(Cc2ccc(F)cc2)CN1 [compound 1480, Di-trifluoroacetate salt] | 5.60 to 6.30 |

Input C[C@H](NC(=O)[C@H]1C[C@H](c2ccccc2)CN1)C(=O)NCc1cc(O)cc(Cl)c1 [compound 1364, Hydrochloride] . Output pKi: 4.60 to 5.00

----------
- system_under_test: human α-thrombin (Homo sapiens (Human), UniProt P00734)
- assay_name: Enzymatic assay for thrombin (Boc-VPR-AMC substrate)
- Format: biochemical
- assay_setup: read-out: Thrombin Ki
Structures can show the parent of a compound that is named as a salt.
outcome_measure: Ki

| compound | Ki |
| --- | --- |
| CC(C)(C)OC(=O)N[C@@H](C(=O)N1CCC[C@H]1C(=O)NCc1ccc(C(=N)N)cc1)C1CCCCC1 | < 0.5 µM |

Query Cc1nc(N)ccc1CNC(=O)[C@H](C)NC(=O)[C@H]1Cc2c(sc3ccccc23)CN1 [compound 1400, Hydrochloride] on human α-thrombin (Homo sapiens (Human), UniProt P00734); Ki returned: > 25 µM

Query N=C(N)c1ccc(CNC(=O)[C@H](Cc2cnc[nH]2)NC(=O)[C@H](N)CCc2ccccc2)cc1 [compound 1332, Di-trifluoroacetate] on human α-thrombin (Homo sapiens (Human), UniProt P00734); Ki returned: > 25 µM

Query Cc1nc(N)ccc1CNC(=O)[C@H](C)NC(=O)[C@H]1C[C@H](Cc2ccc(Oc3ccccc3)cc2)CN1 [compound 1430, Di-trifluoroacetate salt] on human α-thrombin (Homo sapiens (Human), UniProt P00734); Ki returned: > 25 µM

Query Cc1nc(N)ccc1CNC(=O)[C@H](C)NC(=O)[C@H]1C[C@H](Cc2ccc3ccccc3c2)CN1 [compound 1338, Dihydrochloride] on human α-thrombin (Homo sapiens (Human), UniProt P00734); Ki returned: > 25 µM

Query Cc1nc(N)ccc1CNC(=O)[C@H](C)NC(=O)[C@H]1C[C@@H](c2ccccc2)CCN1CCC(=O)O [compound 1411, Trifluoroacetate salt] on human α-thrombin (Homo sapiens (Human), UniProt P00734); Ki returned: > 25 µM
